Source of measurements: ChEMBL document CHEMBL3576831

- System under test: Transient receptor potential cation channel subfamily M member 8 (Homo sapiens)
- Sequence (Q7Z2W7 whole entry): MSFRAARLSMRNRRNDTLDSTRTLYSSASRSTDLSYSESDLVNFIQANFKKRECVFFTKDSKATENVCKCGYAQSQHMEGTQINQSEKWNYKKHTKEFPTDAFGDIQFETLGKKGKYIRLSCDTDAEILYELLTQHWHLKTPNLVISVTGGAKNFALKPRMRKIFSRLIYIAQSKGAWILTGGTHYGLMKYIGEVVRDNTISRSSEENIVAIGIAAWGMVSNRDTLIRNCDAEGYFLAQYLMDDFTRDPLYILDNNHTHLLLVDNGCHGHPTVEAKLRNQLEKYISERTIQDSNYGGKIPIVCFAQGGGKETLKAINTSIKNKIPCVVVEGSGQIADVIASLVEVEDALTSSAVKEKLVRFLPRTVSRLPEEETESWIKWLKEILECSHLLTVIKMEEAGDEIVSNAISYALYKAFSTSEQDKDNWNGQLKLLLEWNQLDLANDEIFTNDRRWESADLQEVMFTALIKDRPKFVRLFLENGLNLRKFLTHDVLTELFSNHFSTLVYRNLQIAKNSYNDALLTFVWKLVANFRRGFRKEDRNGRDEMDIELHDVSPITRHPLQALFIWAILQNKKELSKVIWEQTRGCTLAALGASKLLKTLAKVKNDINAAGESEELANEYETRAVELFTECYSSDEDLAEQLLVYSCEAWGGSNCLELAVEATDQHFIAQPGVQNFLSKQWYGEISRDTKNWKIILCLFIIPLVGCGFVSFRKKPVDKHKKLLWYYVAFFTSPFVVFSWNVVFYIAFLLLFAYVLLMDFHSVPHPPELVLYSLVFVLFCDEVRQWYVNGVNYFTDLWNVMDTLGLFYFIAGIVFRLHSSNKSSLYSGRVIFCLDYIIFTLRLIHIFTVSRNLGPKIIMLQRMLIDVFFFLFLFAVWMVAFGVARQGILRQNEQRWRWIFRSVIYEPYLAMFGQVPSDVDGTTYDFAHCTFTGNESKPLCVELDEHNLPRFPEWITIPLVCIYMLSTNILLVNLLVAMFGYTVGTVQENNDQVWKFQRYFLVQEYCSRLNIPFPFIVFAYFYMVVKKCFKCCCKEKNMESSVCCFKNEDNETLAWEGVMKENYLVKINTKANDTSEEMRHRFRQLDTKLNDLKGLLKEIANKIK
- Procedure details: Antagonist activity against human recombinant TRPM8 expressed in CHO T-rex cells assessed as inhibition of WS12-induced calcium response pre-incubated for 20 mins before WS12 addition
- Format: cell-based
pIC50: −log10 of the molar value.
# label = Condition met if pIC50 >= 6 else Condition not met

1) COc1ccc(C(C)N(Cc2cccc(C(=O)O)c2)C(=O)c2cnc3ccccc3c2)cc1 (centres undefined) : Condition not met
2) C[C@H](c1ccc(F)cc1F)N(Cc1cccc(C(=O)O)c1)C(=O)c1cc2ccccn2n1 : Condition met
3) CC(c1ccc(F)cc1)N(Cc1cccc(C(=O)O)c1)C(=O)c1ccc2c(c1)CCO2 (racemic) : Condition not met
4) C[C@H](c1ccc(F)cc1)N(Cc1cccc(C(=O)O)c1)C(=O)c1cnc2ccccc2c1 [PF-05105679] : Condition met
5) C[C@H](c1cccc(Cl)c1)N(Cc1cccc(C(=O)O)c1)C(=O)c1cnc2ccccc2c1 : Condition met
6) C[C@H](c1ccc(F)cc1)N(Cc1cccc(CC(=O)O)c1)C(=O)c1cnc2ccccc2c1 : Condition not met
7) C[C@H](c1ccc(F)cc1F)N(Cc1cccc(C(=O)O)c1)C(=O)c1cc2ccccc2cn1 : Condition met

* * *

- Procedure details: Fraction unbound in rat plasma
- Type: ADME, cell-free
Value type: fraction unbound

1. C[C@H](c1ccc(F)cc1)N(Cc1cccc(C(=O)O)c1)C(=O)c1cnc2ccccc2c1 [PF-05105679] : 0.033

* * *

- Procedure details: Intrinsic clearance in human liver microsomes
- Assay type: ADME
- Details: read-out: CLH
Strictly below 20 µL/min/mg in microsomal CLint: T. Otherwise: F.

1) C[C@H](c1cccc(Cl)c1)N(Cc1cccc(C(=O)O)c1)C(=O)c1cnc2ccccc2c1 : T
2) C[C@H](c1ccc(F)cc1F)N(Cc1cccc(C(=O)O)c1)C(=O)c1cc2ccccc2cn1 : T
3) C[C@H](c1ccc(F)cc1F)N(Cc1cccc(C(=O)O)c1)C(=O)c1cc2ccccn2n1 : F
4) C[C@H](c1ccc(F)cc1)N(Cc1cccc(C(=O)O)c1)C(=O)c1cc2ccccc2cn1 : T
5) C[C@H](c1ccc(F)cc1)N(Cc1cccc(C(=O)O)c1)C(=O)c1cnc2ccccc2c1 : T
6) CC[C@H](c1ccc(F)cc1F)N(Cc1cccc(C(=O)O)c1)C(=O)c1cc2ccccn2n1 : F
7) C[C@H](c1ccc(F)cc1)N(Cc1cccc(C(=O)O)c1)C(=O)c1cc2ccccc2nn1 : T
8) C[C@H](c1ccc(F)cc1F)N(Cc1cccc(C(=O)O)n1)C(=O)c1cc2ccccc2cn1 : T
9) C[C@H](c1ccc(F)cc1)N(Cc1cccc(C(=O)O)c1)C(=O)c1cc2ccccn2n1 : F
10) CC[C@H](c1ccc(F)cc1)N(Cc1cccc(C(=O)O)c1)C(=O)c1cnc2ccccc2c1 : T

* * *

- Procedure details: Oral bioavailability in rat at 2 mg/kg
- Assay type: ADME, organism-based
- Details: in vivo
Value type: bioavailability (%)

1) C[C@H](c1ccc(F)cc1)N(Cc1cccc(C(=O)O)c1)C(=O)c1cnc2ccccc2c1 [PF-05105679] : 29

* * *

- System under test: CYP3A4 (Homo sapiens)
- Sequence (P08684 whole entry): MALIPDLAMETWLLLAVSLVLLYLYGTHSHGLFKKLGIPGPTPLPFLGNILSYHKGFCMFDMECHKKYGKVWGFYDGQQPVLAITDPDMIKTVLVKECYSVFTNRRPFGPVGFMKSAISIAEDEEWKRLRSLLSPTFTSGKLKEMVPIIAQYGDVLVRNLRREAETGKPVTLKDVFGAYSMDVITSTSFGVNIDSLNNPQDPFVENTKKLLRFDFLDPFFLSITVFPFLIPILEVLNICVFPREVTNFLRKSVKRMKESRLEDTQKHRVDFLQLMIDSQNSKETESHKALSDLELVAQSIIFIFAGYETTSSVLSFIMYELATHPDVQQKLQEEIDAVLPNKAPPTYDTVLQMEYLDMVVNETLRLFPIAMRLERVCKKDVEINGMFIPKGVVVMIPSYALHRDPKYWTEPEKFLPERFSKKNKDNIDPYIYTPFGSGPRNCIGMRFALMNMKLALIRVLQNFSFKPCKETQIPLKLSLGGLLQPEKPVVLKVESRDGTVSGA
- Procedure details: Inhibition of CYP3A4 (unknown origin) at 3 uM
- Assay type: ADME
Reported inhibition at 3 µM is given for each of the following molecules.
Value type: inhibition at 3 µM (%)

1) CC[C@H](c1ccc(F)cc1F)N(Cc1cccc(C(=O)O)c1)C(=O)c1cc2ccccn2n1 : 0
2) C[C@H](c1cccc(Cl)c1)N(Cc1cccc(C(=O)O)c1)C(=O)c1cnc2ccccc2c1 : 0
3) C[C@H](c1ccc(F)cc1F)N(Cc1cccc(C(=O)O)c1)C(=O)c1cc2ccccc2cn1 : 0
4) C[C@H](c1ccc(F)cc1F)N(Cc1cccc(C(=O)O)n1)C(=O)c1cc2ccccc2cn1 : 0
5) C[C@H](c1ccc(F)cc1)N(Cc1cccc(C(=O)O)c1)C(=O)c1cnc2ccccc2c1 : 0
